Listed next: entries and their corresponding Ki.
target: UniProt P50281; experiment: Inhibition constant (Ki) on MMP-14h; assay type: biochemical; settings: read-out: Ki MMP-14h; human MMP-14

Please review the following examples before continuing.
>  <molecule>
NC(=O)[C@@H](CCC(=O)O)NC(=O)[C@@H](CCC(=O)O)NC(=O)CCc1cc(-c2ccc(-c3cccc(Cl)c3)cc2)no1 [Compound 7]

>  <Ki>
> 10000 nM

$$$$
>  <molecule>
NC(=O)[C@H](CCC(=O)O)NC(=O)[C@H](CCC(=O)O)NC(=O)[C@H](Cc1cc(-c2ccc(-c3cccc(Cl)c3)cc2)no1)CP(=O)(O)c1ccc(Br)cc1 [RXP470, reference compound]

>  <Ki>
80 nM

$$$$
>  <molecule>
NC(=O)[C@H](CO)NC(=O)[C@H](CCC(=O)O)NC(=O)CCc1ccc(-c2ccccc2)cc1 [Compound 49]

>  <Ki>
> 1000 nM

$$$$
>  <molecule>
O=C(O)CC[C@H](NC(=O)CCc1ccc(-c2cccs2)cc1)C(=O)N1CCC[C@@H](CC(=O)O)C1 [Compound 89]

>  <Ki>
> 1000 nM

$$$$
>  <molecule>
NC(=O)[C@H](CCC(=O)O)NC(=O)[C@H](CCC(=O)O)NC(=O)CCc1ccc(I)cc1 [Compound 31]

>  <Ki>
> 1000 nM

$$$$
>  <molecule>
NC(=O)CC[C@H](NC(=O)[C@H](CCC(=O)O)NC(=O)CCc1ccc(-c2ccc(-c3ccccc3)cc2)cc1)C(N)=O [Compound 62]

>  <Ki>
> 1000 nM

$$$$

Attention now shifts to the item below.
Asked: Can you share its Ki? I mean this molecule: NC(=O)[C@H](CCC(=O)O)NC(=O)CCc1cc(-c2ccc(-c3cccc(Cl)c3)cc2)no1 [Compound 4]
Given back: > 1000 nM

----------
target: MMP-3h (Homo sapiens (Human), UniProt P08254); test: Inhibition constant (Ki) on MMP-3h; type: biochemical; conditions: read-out: Ki MMP-3h; human MMP-3
Sequence (P08254 100-477): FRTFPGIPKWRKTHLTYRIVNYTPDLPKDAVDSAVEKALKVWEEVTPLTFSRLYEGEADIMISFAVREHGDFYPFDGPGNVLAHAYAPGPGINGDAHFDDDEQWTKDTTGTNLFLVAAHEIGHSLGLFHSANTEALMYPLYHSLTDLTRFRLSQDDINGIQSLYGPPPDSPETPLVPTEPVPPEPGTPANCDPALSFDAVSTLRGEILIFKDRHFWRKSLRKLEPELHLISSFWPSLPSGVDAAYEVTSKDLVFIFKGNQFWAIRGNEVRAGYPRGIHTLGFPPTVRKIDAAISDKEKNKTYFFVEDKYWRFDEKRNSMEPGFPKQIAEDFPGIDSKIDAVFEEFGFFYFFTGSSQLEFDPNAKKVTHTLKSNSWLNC
Listing: pKi of selected compounds
Hey, just a heads up that pKi is the negative log base 10 of the concentration in molar.

Sample answers from the record:
>  <smilesEntry>
NC(=O)[C@H](CCC(=O)O)NC(=O)[C@H](CO)NC(=O)CCc1ccc(-c2ccc(-c3ccccc3)cc2)cc1

>  <measuredProperty>
pKi

>  <observedResult>
6.94

$$$$
>  <smilesEntry>
NC(=O)[C@H](CCC(=O)O)NC(=O)[C@H](CCC(=O)O)NC(=O)CCc1ccc(-c2ccc(-c3ccccc3)s2)cc1

>  <measuredProperty>
pKi

>  <observedResult>
6.97

$$$$
>  <smilesEntry>
NC(=O)[C@H](CCC(=O)O)NC(=O)[C@H](CCC(=O)O)NC(=O)CCc1ccc(-c2ccc(-c3ccccc3)cc2)cc1

>  <measuredProperty>
pKi

>  <observedResult>
7.13

$$$$
>  <smilesEntry>
NC(=O)[C@H](CCC(=O)O)NC(=O)[C@H](CCC(=O)O)NC(=O)[C@@H](CC(=O)O)Cc1ccc(-c2cc(-c3ccccc3)cs2)cc1

>  <measuredProperty>
pKi

>  <observedResult>
6.24

$$$$

Asked: Recorded pKi of NC(=O)[C@H](Cc1ccc(O)cc1)NC(=O)[C@H](CCC(=O)O)NC(=O)CCc1ccc(-c2ccc(-c3ccccc3)cc2)cc1 , please.
Given back: 6.21

Asked: Input C[C@H](NC(=O)CCc1ccc(-c2ccc(-c3ccccc3)cc2)cc1)C(=O)N[C@@H](CCC(=O)O)C(N)=O
Given back: 6.85

Asked: Would you mind doing NC(=O)[C@H](CC(=O)O)NC(=O)[C@H](CC(=O)O)NC(=O)CCc1cc(-c2ccc(-c3ccccc3)cc2)no1 as well?
Given back: 6.12

Asked: Next up: NC(=O)[C@H](CO)NC(=O)[C@H](CCC(=O)O)NC(=O)CCc1ccc(-c2ccc(-c3ccccc3)cc2)cc1
Given back: 6.97

----------
Target: UniProt:P50281
Test: Inhibition constant (Ki) on MMP-14h
Assay type: biochemical
Settings: read-out: Ki MMP-14h; human MMP-14
Description: The inhibition constant Ki of these compounds has been determined according to the protocol described by Devel et al, 2006, J. Biol. Chem. (7). In this table I and also in table II below, “h” corresponds to human. All of the compounds have therefore been evaluated on human MMPs.
measuredProperty: Ki

Solved cases (5 shown):
>  <smilesEntry>
NC(=O)[C@@H](CCC(=O)O)NC(=O)[C@H](CCC(=O)O)NC(=O)CCc1cc(-c2ccc(-c3cccc(Cl)c3)cc2)no1

>  <Ki>
> 1 µM

$$$$
>  <smilesEntry>
NC(=O)[C@H](CC(=O)O)NC(=O)[C@H](CCC(=O)O)NC(=O)CCc1ccc(-c2cc(-c3ccccc3)cs2)cc1

>  <Ki>
> 1 µM

$$$$
>  <smilesEntry>
O=C(O)CC[C@H](NC(=O)CCc1ccc(-c2ccccc2)cc1)C(=O)N1CCC[C@@H](CC(=O)O)C1

>  <Ki>
> 5 µM

$$$$
>  <smilesEntry>
NC(=O)[C@H](CCC(=O)O)NC(=O)[C@H](CCC(=O)O)NC(=O)CCc1ccc(Oc2ccccc2)cc1

>  <Ki>
> 1 µM

$$$$
>  <smilesEntry>
NC(=O)[C@H](CCC(=O)O)NC(=O)[C@H](CCC(=O)O)NC(=O)CCc1cc(-c2ccccc2)on1

>  <Ki>
> 1 µM

$$$$

Asked: Need Ki, item NC(=O)[C@H](CCC(=O)O)NC(=O)[C@H](CCC(=O)O)NC(=O)CCc1ccc(-c2cccs2)cc1
Given back: > 1 µM

Asked: What about CC(C)C[C@H](NC(=O)[C@H](CCC(=O)O)NC(=O)CCc1ccc(-c2ccccc2)cc1)C(N)=O ?
Given back: > 5 µM

----------
Ki values, listed per item
target: MMP-8h (Homo sapiens (Human), UniProt P22894); test: Inhibition constant (Ki) on MMP-8h; format: biochemical; conditions: human MMP-8
Sequence (P22894 101-467): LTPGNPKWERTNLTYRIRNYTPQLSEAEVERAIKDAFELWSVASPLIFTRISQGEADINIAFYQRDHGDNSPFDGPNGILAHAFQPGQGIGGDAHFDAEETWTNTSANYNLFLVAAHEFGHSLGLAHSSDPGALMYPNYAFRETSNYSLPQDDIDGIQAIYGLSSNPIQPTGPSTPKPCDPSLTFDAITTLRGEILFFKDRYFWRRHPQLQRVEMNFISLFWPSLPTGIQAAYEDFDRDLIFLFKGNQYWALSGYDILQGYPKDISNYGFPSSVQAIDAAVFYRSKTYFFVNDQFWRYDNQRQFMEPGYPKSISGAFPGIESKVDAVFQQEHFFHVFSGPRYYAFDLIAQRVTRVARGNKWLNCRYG
Numbers only; they are read as nM.

// solved cases for Ki follow
>  <smilesEntry>
NC(=O)[C@H](CCC(=O)O)NC(=O)[C@H](CCC(=O)O)NC(=O)CCc1ccc(-c2csnn2)cc1

>  <readingUnit>
nM

>  <Ki>
231

$$$$
>  <smilesEntry>
NC(=O)[C@H](CCC(=O)O)NC(=O)[C@H](CCC(=O)O)NC(=O)CCc1ccc(-c2ccsc2)cc1

>  <readingUnit>
nM

>  <Ki>
52

$$$$
>  <smilesEntry>
NC(=O)[C@H](CCCC(=O)O)NC(=O)[C@H](CCCC(=O)O)NC(=O)CCc1cc(-c2ccc(-c3cccc(Cl)c3)cc2)no1

>  <readingUnit>
nM

>  <Ki>
638

$$$$
>  <smilesEntry>
NC(=O)CC[C@H](NC(=O)[C@H](CCC(=O)O)NC(=O)CCc1ccc(-c2ccccc2)cc1)C(N)=O

>  <readingUnit>
nM

>  <Ki>
285

$$$$
>  <smilesEntry>
NC(=O)[C@H](CCC(=O)O)NC(=O)[C@H](CCC(=O)O)NC(=O)CCc1ccc(-c2nc3ccccc3s2)cc1

>  <readingUnit>
nM

>  <Ki>
146

$$$$
>  <smilesEntry>
NC(=O)[C@H](CCC(=O)O)NC(=O)[C@H](CCC(=O)O)NC(=O)CCc1cc(-c2ccc(-c3ccccc3)cc2)no1

>  <readingUnit>
nM

>  <Ki>
383

$$$$
>  <smilesEntry>
NC(=O)[C@H](CCC(=O)O)NC(=O)[C@H](CCC(=O)O)NC(=O)CCc1ccc(-n2cccc2)cc1

>  <readingUnit>
nM

>  <Ki>
373

$$$$
>  <smilesEntry>
NC(=O)[C@H](CCC(=O)O)NC(=O)[C@H](CCC(=O)O)NC(=O)CCc1ccc(-c2ccccc2)cc1

>  <readingUnit>
nM

>  <Ki>
226

$$$$

# input for lookup
Asked: So what's the measured Ki for this one? NC(=O)[C@H](CC(=O)O)NC(=O)[C@H](CCC(=O)O)NC(=O)CCc1cc(-c2ccc(-c3ccccc3)cc2)no1
Given back: 832

----------
target: MMP-10h (Homo sapiens (Human)); assay: Inhibition constant (Ki) on MMP-10h; type: biochemical; details: read-out: Ki MMP-10h; human MMP-10
Sequence (P09238 99-476): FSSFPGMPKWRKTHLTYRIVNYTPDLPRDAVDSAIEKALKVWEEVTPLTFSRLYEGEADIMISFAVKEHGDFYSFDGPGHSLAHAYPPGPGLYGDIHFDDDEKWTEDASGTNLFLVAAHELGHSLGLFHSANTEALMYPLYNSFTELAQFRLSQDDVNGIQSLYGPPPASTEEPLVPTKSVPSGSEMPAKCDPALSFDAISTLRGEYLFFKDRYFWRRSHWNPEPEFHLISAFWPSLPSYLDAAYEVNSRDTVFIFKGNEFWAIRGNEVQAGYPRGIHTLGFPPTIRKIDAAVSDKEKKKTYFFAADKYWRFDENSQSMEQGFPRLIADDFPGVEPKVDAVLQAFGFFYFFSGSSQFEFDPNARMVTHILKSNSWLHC
Measured Ki by item

>  <compound>
NC(=O)[C@H](CCC(=O)O)NC(=O)[C@H](Cc1c[nH]cn1)NC(=O)CCc1ccc(-c2ccc(-c3ccccc3)cc2)cc1 [Compound 77]

>  <measuredProperty>
Ki

>  <observedResult>
> 5000 nM

$$$$
>  <compound>
NC(=O)[C@H](CCC(=O)O)NC(=O)[C@H](CC(=O)O)NC(=O)CCc1ccc(-c2ccc(-c3ccccc3)cc2)cc1 [Compound 74]

>  <measuredProperty>
Ki

>  <observedResult>
430 nM

$$$$
>  <compound>
NC(=O)[C@H](CCC(=O)O)NC(=O)[C@H](CCC(=O)O)NC(=O)CCc1ccc(-c2cccc(N)c2)cc1 [Compound 53]

>  <measuredProperty>
Ki

>  <observedResult>
> 1000 nM

$$$$
>  <compound>
NC(=O)[C@H](CCC(=O)O)NC(=O)[C@H](CCC(=O)O)NC(=O)CCc1cc(-c2ccccc2)no1 [Compound 14]

>  <measuredProperty>
Ki

>  <observedResult>
> 1000 nM

$$$$
>  <compound>
NC(=O)[C@H](Cc1c[nH]cn1)NC(=O)[C@H](CCC(=O)O)NC(=O)CCc1ccc(-c2ccc(-c3ccccc3)cc2)cc1 [Compound 67]

>  <measuredProperty>
Ki

>  <observedResult>
168 nM

$$$$
>  <compound>
NC(=O)[C@H](CCC(=O)O)NC(=O)[C@H](CC(=O)O)NC(=O)CCc1cc(-c2ccc(-c3ccccc3)cc2)no1 [Compound 17]

>  <measuredProperty>
Ki

>  <observedResult>
> 1000 nM

$$$$

Asked: What value of Ki has been reported for the following compound? NC(=O)CC[C@H](NC(=O)[C@H](CCC(=O)O)NC(=O)CCc1ccc(-c2cccs2)cc1)C(N)=O [Compound 81]
Given back: 651 nM

Asked: Note, next up: NC(=O)[C@H](CC(=O)O)NC(=O)[C@H](CCC(=O)O)NC(=O)CCc1ccc(-c2ccc(-c3ccccc3)cc2)cc1 [Compound 64]
Given back: 35 nM

Asked: Again, but for NC(=O)[C@H](CO)NC(=O)[C@H](CCC(=O)O)NC(=O)CCc1ccc(-c2ccc(-c3ccccc3)cc2)cc1 [Compound 68]
Given back: 71 nM

Asked: Same question, O=C(O)CC[C@H](NC(=O)CCc1ccc(-c2ccccc2)cc1)C(=O)Nc1cccc(CC(=O)O)c1 [Compound 52] this time
Given back: 433 nM

Asked: Next up: Cn1ccc(-c2ccc(CCC(=O)N[C@@H](CCC(=O)O)C(=O)N[C@@H](CCC(=O)O)C(N)=O)cc2)n1 [Compound 33]
Given back: > 10000 nM

Asked: Also NC(=O)CC[C@H](NC(=O)[C@H](CCC(N)=O)NC(=O)CCc1ccc(-c2ccccc2)cc1)C(N)=O [Compound 43] ?
Given back: > 5000 nM

Asked: Can you check NC(=O)[C@H](CCC(=O)O)NC(=O)[C@H](CO)NC(=O)CCc1ccc(-c2ccc(-c3ccccc3)cc2)cc1 [Compound 78] next?
Given back: > 5000 nM

Asked: Another compound to look at: NC(=O)[C@H](CC(=O)O)NC(=O)[C@H](CCC(=O)O)NC(=O)CCc1ccc(-c2ccccc2)cc1 [Compound 45]
Given back: > 1000 nM
